meta.source: PubChem BioAssay (NCI)

- Tested on: MDA-MB-468 breast
- assayExplanation: NCI-60 one-dose screen, 48 h (100 = growth as untreated, 0 = no growth, -100 = all killed)
- assaySetup: 10 µM unless noted
About 83,000 compounds went through this panel and 20% of them were active in at least one assay; those are over-represented in the sample as a whole.
Here, each record is paired with measured growth data.

[
  {
    "compound": "C=C1CC[C@@H]2[C@]3(C)COC(c4cn[nH]c4-c4ccc(OC)cc4)O[C@@H]3CC[C@@]2(C)[C@@H]1C/C=C1/C(=O)OCC1O (stereo partly drawn)",
    "growth / %": -7.84
  },
  {
    "compound": "C#CCOc1cc(N(CC)CC)ccc1C(C(=O)NC(C)(C)C)N(C(=O)C1CCc2cc(F)ccc2O1)c1ccc(F)cc1 (stereo not drawn)",
    "growth / %": 33.2
  },
  {
    "compound": "COc1cc2oc(-c3cccc(NC(=O)[C@H](Cc4ccccc4)NC(=O)OC(C)(C)C)c3)cc(=O)c2c(OC)c1OC",
    "growth / %": 41.8
  },
  {
    "compound": "N/C(=N\\c1nc2ccccc2s1)NC(=O)Nc1c(Cl)cccc1Cl",
    "growth / %": -4.05
  },
  {
    "compound": "COc1ccc(-c2nc3cc(C)ccc3n2CC(=O)N=Nc2c(O)[nH]c3ccc(OC)cc23)cc1",
    "growth / %": -77.1
  },
  {
    "compound": "Cc1ccc([C@H]2C(C(=O)c3ccc(Cl)cc3)C3(N[C@@H]2c2ccccc2)C(=O)Nc2ccc(Cl)cc23)cc1 (stereo partly drawn)",
    "growth / %": 47.9
  },
  {
    "compound": "O=C(/C=C/c1cccc(OCc2ccccc2)c1)c1nc2ccccc2[nH]1",
    "growth / %": -40.1
  },
  {
    "compound": "C=C1CC[C@@H]2[C@]3(C)COC(c4cn(-c5ccccc5)nc4-c4ccccc4)O[C@@H]3CC[C@@]2(C)[C@@H]1C/C=C1/C(=O)OC[C@H]1O (stereo partly drawn)",
    "growth / %": -90.1
  }
]
